system: IGROV1 ovarian; test: NCI tumour cell line growth inhibition, 48 h
Quantity measured: TGI

Consider the reported TGI for these compounds:
> print(dat)
                                   compound  assay.result
1  C[C@@H]1C(=O)CC2C(C)(C)CCC[C@]2(C)[C@@]12CC[C@]1(C=COC1)O2 (stereo not given in full)      > 100 µM
2  C=C1c2nc3ccccc3n2C=C(c2ccc(OC)cc2)N1c1ccc(OCCN2CCCCC2)cc1      > 100 µM
3            O=[N+]([O-])c1ccc(C2=NCCO2)cc1      > 100 µM
4  COC(=O)NC(=O)NC(Cc1ccccc1)NC(=O)OCc1ccccc1 (stereo not given)      > 100 µM

From here, focus on the item given below.
Entry O=C1Cc2c(-c3cccs3)cc(-c3ccccc3)nc2-c2ccccc2N1 : reported TGI = ? 71.5 µM
